# target_or_test_system: JAK2 (Homo sapiens)
# Sequence (O60674 whole entry): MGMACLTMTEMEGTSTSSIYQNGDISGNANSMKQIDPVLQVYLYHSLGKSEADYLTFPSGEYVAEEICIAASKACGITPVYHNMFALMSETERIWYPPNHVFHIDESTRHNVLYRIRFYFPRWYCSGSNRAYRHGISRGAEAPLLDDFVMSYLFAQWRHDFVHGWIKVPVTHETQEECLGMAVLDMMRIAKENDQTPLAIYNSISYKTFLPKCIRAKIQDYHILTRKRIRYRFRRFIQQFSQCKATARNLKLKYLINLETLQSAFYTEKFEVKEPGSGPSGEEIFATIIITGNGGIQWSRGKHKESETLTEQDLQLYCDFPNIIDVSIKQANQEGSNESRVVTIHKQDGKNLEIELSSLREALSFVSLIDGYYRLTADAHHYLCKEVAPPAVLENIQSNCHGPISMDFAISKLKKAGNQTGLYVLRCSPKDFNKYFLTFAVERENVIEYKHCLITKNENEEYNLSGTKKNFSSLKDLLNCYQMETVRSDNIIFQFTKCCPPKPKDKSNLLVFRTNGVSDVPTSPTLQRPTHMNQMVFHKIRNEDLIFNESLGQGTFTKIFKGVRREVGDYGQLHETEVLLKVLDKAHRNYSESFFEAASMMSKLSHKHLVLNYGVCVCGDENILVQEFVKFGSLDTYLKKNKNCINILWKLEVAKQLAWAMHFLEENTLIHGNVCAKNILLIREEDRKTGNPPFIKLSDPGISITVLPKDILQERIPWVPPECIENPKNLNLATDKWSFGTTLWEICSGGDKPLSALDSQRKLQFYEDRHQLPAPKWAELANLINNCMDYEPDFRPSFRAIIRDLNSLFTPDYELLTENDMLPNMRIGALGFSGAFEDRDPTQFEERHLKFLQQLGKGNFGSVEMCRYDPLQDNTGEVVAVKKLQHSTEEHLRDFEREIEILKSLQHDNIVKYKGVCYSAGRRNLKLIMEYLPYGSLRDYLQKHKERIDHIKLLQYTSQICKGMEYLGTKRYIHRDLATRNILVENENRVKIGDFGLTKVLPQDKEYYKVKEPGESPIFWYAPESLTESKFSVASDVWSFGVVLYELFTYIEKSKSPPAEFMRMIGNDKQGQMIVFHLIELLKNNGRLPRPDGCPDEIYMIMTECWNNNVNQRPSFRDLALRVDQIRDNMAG
# measurement_notes: JAK2 inhibition assay (as Example 3 with JAK-2 enzyme)
# Format: biochemical
# condition_set: Table 6; enzyme inhibition data (Ki)
Some molecules, each annotated with its measured Ki.

1) C=CCN(CC=C)C(=O)c1cc(-c2c(Cl)cnc3[nH]ccc23)c[nH]1; < 500 nM
2) CCCCN(CC#N)C(=O)c1ccc(-c2ccnc3[nH]ccc23)s1; < 500 nM
3) CN(CC(F)(F)F)C(=O)c1cc(-c2ccnc3[nH]ccc23)c[nH]1; < 500 nM
4) CCCNC(=O)c1ccccc1-c1ccnc2[nH]ccc12; > 5000 nM

Let us examine a further case.
Using known records, supply Ki for Nc1nc(-c2ccnc3[nH]ccc23)ncc1F
500 to 5000 nM

* * *

Some molecules, each annotated with its measured pKi.
# target_or_test_system: ROCK I (Homo sapiens, UniProt Q13464)
# Sequence (Q13464 whole entry): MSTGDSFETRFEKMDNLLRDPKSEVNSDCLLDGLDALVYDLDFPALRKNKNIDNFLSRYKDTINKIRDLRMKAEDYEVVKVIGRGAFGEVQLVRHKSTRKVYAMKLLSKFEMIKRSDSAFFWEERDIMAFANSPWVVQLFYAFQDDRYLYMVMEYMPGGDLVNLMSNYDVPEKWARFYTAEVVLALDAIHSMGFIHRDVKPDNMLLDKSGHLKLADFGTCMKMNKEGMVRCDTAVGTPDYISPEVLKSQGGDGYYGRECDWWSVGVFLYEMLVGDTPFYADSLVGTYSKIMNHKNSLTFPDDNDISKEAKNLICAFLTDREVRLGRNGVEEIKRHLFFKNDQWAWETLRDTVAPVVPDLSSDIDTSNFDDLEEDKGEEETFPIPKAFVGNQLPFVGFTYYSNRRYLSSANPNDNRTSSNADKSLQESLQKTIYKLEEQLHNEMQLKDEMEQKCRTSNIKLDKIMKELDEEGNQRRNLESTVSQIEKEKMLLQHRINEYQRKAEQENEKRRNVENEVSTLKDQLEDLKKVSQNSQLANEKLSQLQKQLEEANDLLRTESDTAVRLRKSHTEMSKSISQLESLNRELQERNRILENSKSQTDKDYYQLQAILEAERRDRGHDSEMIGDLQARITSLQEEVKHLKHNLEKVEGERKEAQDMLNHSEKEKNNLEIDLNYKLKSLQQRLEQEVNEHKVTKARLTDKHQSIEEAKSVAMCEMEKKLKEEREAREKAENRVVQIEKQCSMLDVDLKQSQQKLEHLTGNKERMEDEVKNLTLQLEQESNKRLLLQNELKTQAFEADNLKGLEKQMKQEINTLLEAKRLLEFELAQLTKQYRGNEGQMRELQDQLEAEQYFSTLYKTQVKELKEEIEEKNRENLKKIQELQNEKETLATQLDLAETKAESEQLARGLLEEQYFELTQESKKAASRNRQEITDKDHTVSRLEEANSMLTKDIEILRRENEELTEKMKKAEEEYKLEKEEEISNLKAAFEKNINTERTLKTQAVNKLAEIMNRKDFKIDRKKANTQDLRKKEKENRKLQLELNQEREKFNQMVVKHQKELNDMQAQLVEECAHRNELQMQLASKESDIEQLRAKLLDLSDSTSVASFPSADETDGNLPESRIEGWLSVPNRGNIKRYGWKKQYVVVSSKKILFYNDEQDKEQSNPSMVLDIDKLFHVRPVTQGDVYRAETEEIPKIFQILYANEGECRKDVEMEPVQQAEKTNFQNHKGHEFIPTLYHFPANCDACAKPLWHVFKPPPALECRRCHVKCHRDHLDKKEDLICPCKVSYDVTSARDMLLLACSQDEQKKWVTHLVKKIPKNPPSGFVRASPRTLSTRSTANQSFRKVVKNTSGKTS
# measurement_notes: ROCK-I inhibition assay (radioactive enzyme assay, MBP substrate)
# Assay type: biochemical
# condition_set: Table 6; enzyme inhibition data (Ki)
pKi: −log10 of the molar value.

Examples with answers:
1. CN(CCC#N)C(=O)c1cc(-c2ccnc3[nH]ccc23)c[nH]1 [compound 306]; > 6.30
2. CC(C)(C)C(=O)Nc1ncccc1-c1ccnc2[nH]ccc12 [compound 194]; < 5.40
3. CCN(Cc1ccccc1)C(=O)c1cc(-c2c(F)cnc3[nH]ccc23)c[nH]1 [compound 395]; 5.30 to 6.30

Using known records, supply pKi for CCN(Cc1ccccc1)C(=O)c1cc(-c2ccnc3[nH]ccc23)c[nH]1 [compound 313]
> 6.30

Using known records, supply pKi for Clc1cnc2[nH]ccc2c1-c1cc2ccccc2s1 [compound 137]
< 5.40

* * *

# target_or_test_system: ROCK I (Homo sapiens, UniProt Q13464)
# measurement_notes: ROCK-I inhibition assay (radioactive enzyme assay, MBP substrate)
# Format: biochemical
# condition_set: enzyme inhibition, Ki(app), Table 5
pKi: −log10 of the molar value.
Some compounds, each annotated with its measured pKi.

Examples with answers:
1. Cn1cc(-c2ccnc3[nH]ccc23)cn1; > 6.30
2. N#Cc1ccc(-c2ccnc3[nH]ccc23)s1; > 6.30
3. Clc1ccccc1CNc1cccc(-c2ccnc3[nH]ccc23)n1; 5.30 to 6.30
4. CC(C)CNc1cccc(-c2ccnc3[nH]ccc23)n1; 5.30 to 6.30

Using known records, supply pKi for COCC(=O)Nc1cc(-c2ccnc3[nH]ccc23)cs1
> 6.30

Using known records, supply pKi for CC(C)(C(=O)CC#N)c1cccc(-c2ccnc3[nH]ccc23)n1
> 6.30

Using known records, supply pKi for c1cc(-c2ccnc3[nH]ccc23)c2ccoc2c1
> 6.30

Using known records, supply pKi for Clc1cnc2[nH]ccc2c1C1=CCCC1
5.30 to 6.30

Using known records, supply pKi for CC(C)(O)c1cccc(-c2ccnc3[nH]ccc23)n1
> 6.30

Using known records, supply pKi for FC(F)(F)c1cccc(-c2ccnc3[nH]ccc23)c1
> 6.30

* * *

# target_or_test_system: UniProt:Q13464
# measurement_notes: ROCK-I inhibition assay (radioactive enzyme assay, MBP substrate)
# Assay type: biochemical
# condition_set: Table 6; enzyme inhibition data (Ki)
Some compounds, each annotated with its measured Ki.

1. N#CCCN(Cc1ccccc1)C(=O)c1cc(-c2ccnc3[nH]ccc23)c[nH]1; < 500 nM

Using known records, supply Ki for C=CCN(CC=C)C(=O)c1cc(-c2c(Cl)cnc3[nH]ccc23)c[nH]1
500 to 5000 nM

Using known records, supply Ki for CCCN(CC(F)(F)F)C(=O)c1csc(-c2ccnc3[nH]ccc23)n1
< 500 nM

Using known records, supply Ki for CC1CCC(C)N1C(=O)c1cc(-c2ccnc3[nH]ccc23)c[nH]1 (stereo not drawn)
< 500 nM

Using known records, supply Ki for C#CCOC(=O)N1CC[C@H](Nc2c(Cl)cnc3[nH]ccc23)C1
> 4000 nM

Using known records, supply Ki for C=CCN(CC=C)C(=O)c1ccc(-c2ccnc3[nH]ccc23)s1
< 500 nM

Using known records, supply Ki for Clc1cnc2[nH]ccc2c1-c1ccco1
< 500 nM

Using known records, supply Ki for N#CCC(=O)N1CC[C@@H](Nc2c(Cl)cnc3[nH]ccc23)C1
500 to 5000 nM

Using known records, supply Ki for CNC(=O)c1ccc(-c2ccnc3[nH]ccc23)cc1
< 500 nM
